- experimentalTarget: recombinant human ALK5 (TGF-βR1) protein (Homo sapiens)
- Sequence (P36897 34-503): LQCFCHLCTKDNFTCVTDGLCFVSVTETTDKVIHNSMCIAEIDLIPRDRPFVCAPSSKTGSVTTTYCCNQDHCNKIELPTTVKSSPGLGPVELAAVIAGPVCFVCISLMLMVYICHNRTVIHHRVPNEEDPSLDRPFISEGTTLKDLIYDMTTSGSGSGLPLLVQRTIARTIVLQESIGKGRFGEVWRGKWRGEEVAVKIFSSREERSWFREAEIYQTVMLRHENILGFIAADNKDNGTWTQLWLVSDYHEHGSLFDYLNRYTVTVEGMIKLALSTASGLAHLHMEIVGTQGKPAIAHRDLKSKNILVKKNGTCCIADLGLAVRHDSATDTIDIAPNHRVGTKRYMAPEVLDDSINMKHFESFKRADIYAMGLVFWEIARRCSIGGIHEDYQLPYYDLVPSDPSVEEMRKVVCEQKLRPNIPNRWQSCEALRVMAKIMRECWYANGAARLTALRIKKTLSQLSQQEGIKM
- assay: Biochemical ALK5 (TGF-βR1) assay to measure pKi (LANCE Ultra ULight kinase assay)
- studyConditions: apparent pKi, converted from pIC50 by Cheng-Prusoff
pKi: −log10 of the molar value.
What pKi was measured for each of the following?

INSERT INTO results (compound, result) VALUES
  ('Cc1cccc(-c2nccc(Nc3ccnc(Nc4ccc(C(=O)OCCC5CCNCC5)nc4)n3)n2)n1 [Compound 558]', '9.50 to 10.40'),
  ('Cc1cccc(-c2nccc(Nc3ccnc(Nc4ccc5[nH]nnc5c4)n3)n2)n1 [Compound 512]', '8.50 to 9.40'),
  ('COC(=O)c1ccc(Nc2nccc(Nc3nc(-c4cccc(C)n4)ncc3C(=O)OC)n2)cc1 [Compound 1043]', '7.50 to 8.40'),
  ('COc1cc(Nc2nccc(Nc3ccnc(-c4cccc(C)n4)n3)n2)ccc1N1CCOCC1 [Compound 79]', '9.50 to 10.40'),
  ('Fc1ccc(-c2nccc(Nc3ccnc(Nc4ccc(N5CCOCC5)cc4)n3)n2)nc1C(F)F [Compound 426]', '7.50 to 8.40'),
  ('CC(=O)N1CC(COC(=O)c2cc(Nc3nccc(Nc4ccnc(-c5cccc(C)n5)n4)n3)cs2)C1 [Compound 576]', '9.50 to 10.40'),
  ('Cc1cccc(-c2nc(Nc3ccnc(Nc4ccc(NC(=O)C5(CO)CNC5)cc4)n3)c3cccn3n2)n1 [Compound 1031]', '9.50 to 10.40'),
  ('Cc1cccc(-c2nccc(Nc3ccnc(Nc4ccc(CN5CCC[C@@H](C(=O)OCC6CNC6)C5)cc4)n3)n2)n1 [Compound 400]', '9.50 to 10.40'),
  ('Cc1cccc(-c2nccc(Nc3ccnc(Nc4ccc(C(=O)OCC5CCNCC5)nc4)n3)n2)n1 [Compound 587]', '9.50 to 10.40'),
  ('COC[C@H]1CN(Cc2ccc(Nc3nccc(Nc4ccnc(-c5cccc(C)n5)n4)n3)cc2)CCN1 [Compound 64]', '9.50 to 10.40');

Give me pKi for each of these compounds, listed below.
1. Cc1cccc(-c2nccc(Nc3ccnc(Nc4ccc(N5CCCC(C(=O)OC6CCNC6)C5)cc4)n3)n2)n1 (stereo not drawn) [Compound 11]
2. Cc1cccc(-c2nccc(Nc3ccnc(Nc4csc(C(=O)OC[C@H]5CCCN5)c4)n3)n2)n1 [Compound 583]
3. Cc1cccc(-c2nccc(Nc3ccnc(Nc4ccc(C)c(CN5CCN(C)CC5)c4)n3)n2)n1 [Compound 311]
4. Cc1cccc(-c2nccc(Nc3ccnc(Nc4cccc(NC(=O)C5CCN(CCN(C)C)CC5)c4)n3)n2)n1 [Compound 134]
5. Cc1cccc(-c2nccc(Nc3ccnc(Nc4cccc(NC(=O)N5CCNCC5)c4)n3)n2)n1 [Compound 298]

1: 9.50 to 10.40; 2: 9.50 to 10.40; 3: 9.50 to 10.40; 4: 9.50 to 10.40; 5: 9.50 to 10.40

The values you see were collected from patent US20230399312A1.
